Test: Antibacterial activity against Salmonella enterica subspecies enterica serotype Poona NCTC 4840 after 18 hrs
Assay type: functional, Salmonella enterica subsp. enterica serovar Poona
Settings: NCTC 4840, 18 h
READOUT NAME: MIC

>>> result("Oc1cc(Cl)ccc1Oc1ccc(Cl)cc1Cl")
"0.5 to 1 µg/mL"
>>> result("OC[C@H]1O[C@@H](Oc2cc(Cl)ccc2Oc2ccc(Cl)cc2Cl)[C@H](O)[C@@H](O)[C@H]1O")
"2 to 16 µg/mL"
>>> result("OC[C@H]1O[C@H](Oc2cc(Cl)ccc2Oc2ccc(Cl)cc2Cl)[C@H](O)[C@@H](O)[C@@H]1O")
"2 to 8 µg/mL"
>>> result("OC[C@H]1O[C@H](Oc2cc(Cl)ccc2Oc2ccc(Cl)cc2Cl)[C@H](O)[C@@H](O)[C@H]1O")
"32 to 64 µg/mL"

* * *

Entries and their MIC
System: Staphylococcus aureus
Test: Antibacterial activity against Staphylococcus aureus ATCC 25923 after 18 hrs
Assay type: functional
Details: ATCC 25923, 18 h
READOUT NAME: MIC (µg/mL)

>>> result_number("OC[C@H]1O[C@H](Oc2cc(Cl)ccc2Oc2ccc(Cl)cc2Cl)[C@H](O)[C@@H](O)[C@@H]1O")
1
>>> result_number("OC[C@H]1O[C@@H](Oc2cc(Cl)ccc2Oc2ccc(Cl)cc2Cl)[C@H](O)[C@@H](O)[C@H]1O")
0.5
>>> result_number("Oc1cc(Cl)ccc1Oc1ccc(Cl)cc1Cl [TRICLOSAN]")
0.01
>>> result_number("O[C@@H]1[C@@H](Oc2cc(Cl)ccc2Oc2ccc(Cl)cc2Cl)OC[C@@H](O)[C@H]1O")
0.5

* * *

Entries and their MIC
System: Staphylococcus epidermidis
Test: Antibacterial activity against Staphylococcus epidermidis ATCC 14990 after 18 hrs
Assay type: functional
Settings: ATCC 14990, 18 h
READOUT NAME: MIC

>>> result("OC[C@H]1O[C@H](Oc2cc(Cl)ccc2Oc2ccc(Cl)cc2Cl)[C@@H](O)[C@@H](O)[C@@H]1O")
"4 to 8 µg/mL"
>>> result("OC[C@H]1O[C@H](Oc2cc(Cl)ccc2Oc2ccc(Cl)cc2Cl)[C@H](O)[C@@H](O)[C@H]1O")
"8 to 32 µg/mL"
>>> result("O[C@@H]1[C@H](Oc2cc(Cl)ccc2Oc2ccc(Cl)cc2Cl)OC[C@@H](O)[C@H]1O")
"8 to 16 µg/mL"
>>> result("OC[C@H]1O[C@@H](Oc2cc(Cl)ccc2Oc2ccc(Cl)cc2Cl)[C@H](O)[C@@H](O)[C@@H]1O")
"8 to 16 µg/mL"

* * *

Test: Antibacterial activity against Salmonella enterica subspecies enterica serotype Nottingham NCTC 7832 after 18 hrs
Assay type: functional, Salmonella enterica subsp. enterica serovar Nottingham
Conditions: NCTC 7832, 18 h
Entries and their MIC
READOUT NAME: MIC

>>> result("OC[C@H]1O[C@H](Oc2cc(Cl)ccc2Oc2ccc(Cl)cc2Cl)[C@@H](O)[C@@H](O)[C@@H]1O")
"16 to 64 µg/mL"
>>> result("OC[C@H]1O[C@H](Oc2cc(Cl)ccc2Oc2ccc(Cl)cc2Cl)[C@H](O)[C@@H](O)[C@@H]1O")
"2 to 8 µg/mL"
>>> result("OC[C@H]1O[C@@H](Oc2cc(Cl)ccc2Oc2ccc(Cl)cc2Cl)[C@H](O)[C@@H](O)[C@@H]1O")
"16 to 32 µg/mL"

* * *

Test system: Staphylococcus epidermidis
Assay: Antibacterial activity against Staphylococcus epidermidis 155 after 18 hrs
Assay type: functional
Details: Staphylococcus epidermidis, 155, 18 h
Entries and their MIC
READOUT NAME: MIC

>>> result("O[C@@H]1[C@H](Oc2cc(Cl)ccc2Oc2ccc(Cl)cc2Cl)OC[C@@H](O)[C@H]1O")
"8 to 16 µg/mL"
>>> result("OC[C@H]1O[C@@H](Oc2cc(Cl)ccc2Oc2ccc(Cl)cc2Cl)[C@H](O)[C@@H](O)[C@@H]1O")
"8 to 16 µg/mL"
>>> result("OC[C@H]1O[C@H](Oc2cc(Cl)ccc2Oc2ccc(Cl)cc2Cl)[C@H](O)[C@@H](O)[C@H]1O")
"8 to 32 µg/mL"
>>> result("OC[C@H]1O[C@H](Oc2cc(Cl)ccc2Oc2ccc(Cl)cc2Cl)[C@@H](O)[C@@H](O)[C@@H]1O")
"4 to 8 µg/mL"

* * *

System: Staphylococcus aureus
Experiment: Antibacterial activity against Staphylococcus aureus ATCC 25923 after 18 hrs
Format: functional
Conditions: ATCC 25923, 18 h
READOUT NAME: MIC

>>> result("OC[C@H]1O[C@H](Oc2cc(Cl)ccc2Oc2ccc(Cl)cc2Cl)[C@@H](O)[C@@H](O)[C@@H]1O")
"2 to 8 µg/mL"
>>> result("OC[C@H]1O[C@@H](Oc2cc(Cl)ccc2Oc2ccc(Cl)cc2Cl)[C@H](O)[C@@H](O)[C@@H]1O")
"4 to 8 µg/mL"
>>> result("OC[C@H]1O[C@H](Oc2cc(Cl)ccc2Oc2ccc(Cl)cc2Cl)[C@H](O)[C@@H](O)[C@H]1O")
"8 to 16 µg/mL"
>>> result("O[C@@H]1[C@H](Oc2cc(Cl)ccc2Oc2ccc(Cl)cc2Cl)OC[C@@H](O)[C@H]1O")
"4 to 8 µg/mL"
